assay-details: Toxicity against human pancreatic islet cells (C-peptide positive cell count)
Assay type: cell-based
experimental-conditions: female, dissociated human pancreatic islet cells; human islet cells, 120 hours; relative to the C3 and tested C4 free fatty acids; read-out: decrease of human pancreatic cell viability
reported-metric: cytotoxicity at 120 h

Qu. Using the record for CCCCCCCC/C=C\CCCCCCCCCCCC(=O)O [EA, 13(Z)-Docosenoic acid] , state its measured cytotoxicity at 120 h.
Ans. > 50%

----------
Test system: MIN6 cells
assay-details: ER calcium levels (Fluo4, thapsigargin, FLIPR Tetra)
Type: cell-based, mouse
experimental-conditions: FFA treatment 24 h, relative to negative control (BSA)
reported-metric: ER Ca^2+ levels (peak amplitude after thapsigargin 10 μM)

CCCCC/C=C\C/C=C\C/C=C\CCCCC(=O)O; increased
CCCCC/C=C\C/C=C\C/C=C\C/C=C\CCCC(=O)O; increased
CCCCCCCC/C=C\CCCCCCCC(=O)O [OA, 9(Z)-Octadecenoic acid]; near-baseline
CCCCCCCCCCC/C=C\CCCCC(=O)O; near-baseline
